Hi there, I'd appreciate the recorded % Kill, T47D cells for every entry that follows.
Target: T1, human prolactin receptor (PRLR) (human, UniProt P16471 25-622)
T1 sequence: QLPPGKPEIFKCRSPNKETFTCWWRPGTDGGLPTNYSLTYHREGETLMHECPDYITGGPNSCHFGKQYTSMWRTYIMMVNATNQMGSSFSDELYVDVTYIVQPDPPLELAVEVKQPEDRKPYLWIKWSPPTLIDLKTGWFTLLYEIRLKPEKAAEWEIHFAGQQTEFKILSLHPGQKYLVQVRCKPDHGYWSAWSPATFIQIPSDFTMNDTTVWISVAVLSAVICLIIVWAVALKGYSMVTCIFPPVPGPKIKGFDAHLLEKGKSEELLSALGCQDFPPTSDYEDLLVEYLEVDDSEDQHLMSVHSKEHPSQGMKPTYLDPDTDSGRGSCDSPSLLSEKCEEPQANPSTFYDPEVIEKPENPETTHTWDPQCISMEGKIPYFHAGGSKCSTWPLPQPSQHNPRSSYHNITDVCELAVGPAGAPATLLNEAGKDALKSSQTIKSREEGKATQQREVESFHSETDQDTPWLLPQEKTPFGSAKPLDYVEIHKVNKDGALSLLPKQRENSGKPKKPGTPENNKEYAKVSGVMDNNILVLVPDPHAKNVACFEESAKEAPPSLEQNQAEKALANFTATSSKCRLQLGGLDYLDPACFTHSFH
Assay: cell-based or functional assay
The response must be a number in % with no trailing unit.

Item: H1H6953N-DM1 (antibody, human IgG1, V domains shown, DM1 conjugated through SMCC linker; attachment residues not stated) VH: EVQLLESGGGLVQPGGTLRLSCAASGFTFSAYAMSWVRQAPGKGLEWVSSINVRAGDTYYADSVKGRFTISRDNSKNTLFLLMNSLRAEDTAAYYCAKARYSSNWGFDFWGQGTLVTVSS VL: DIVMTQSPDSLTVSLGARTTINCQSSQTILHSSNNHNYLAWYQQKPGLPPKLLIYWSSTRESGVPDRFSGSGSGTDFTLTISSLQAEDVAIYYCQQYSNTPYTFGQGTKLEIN | % Kill, T47D cells: 100

Item: H1H6782P-mc-VC-PAB-MeNHC3-May (antibody, human IgG1, V domains shown, MeNHC3-May conjugated through mc-VC-PAB linker; attachment residues not stated) VH: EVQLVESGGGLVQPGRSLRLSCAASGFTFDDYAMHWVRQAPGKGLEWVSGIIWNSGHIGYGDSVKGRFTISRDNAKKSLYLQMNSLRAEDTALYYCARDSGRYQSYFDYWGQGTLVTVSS VL: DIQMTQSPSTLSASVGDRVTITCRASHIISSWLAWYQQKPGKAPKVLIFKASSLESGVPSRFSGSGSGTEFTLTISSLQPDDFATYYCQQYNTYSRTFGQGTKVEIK | % Kill, T47D cells: 90

Item: H1H6765P-DM1 (antibody, human IgG1, V domains shown, DM1 conjugated through SMCC linker; attachment residues not stated) VH: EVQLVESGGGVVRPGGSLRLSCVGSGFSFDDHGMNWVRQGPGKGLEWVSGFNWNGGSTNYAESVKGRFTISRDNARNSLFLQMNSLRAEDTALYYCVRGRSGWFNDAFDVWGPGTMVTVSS VL: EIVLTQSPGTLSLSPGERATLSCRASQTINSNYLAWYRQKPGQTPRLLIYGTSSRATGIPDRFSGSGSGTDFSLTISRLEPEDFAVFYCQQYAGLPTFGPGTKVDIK | % Kill, T47D cells: 90
